tested on: CL1-0; test: Cell cytotoxicity assay (MTS), CL1-0; format: cell-based; conditions: Homo sapiens, CL1-0, 72 h
pIC50: −log10 of the molar value.
experimentalReadout: pIC50

| testSmiles | valueObserved |
| --- | --- |
| CCOC(=O)c1ccc2[nH]c(-c3ccccc3)cc(=O)c2c1 | 7.80 |

----------
test system: IGR-OV1; test: Cell cytotoxicity assay (MTS), IGR-OV1; format: cell-based; conditions: Homo sapiens, IGROV-1

| testSmiles | measurementTarget | IC50 |
| --- | --- | --- |
| CCOC(=O)c1ccc2[nH]c(-c3ccccc3)cc(=O)c2c1 | IGR-OV1 | 0.084 µM |

Data provenance is patent US12109207B2.
